I'd be grateful if you could share measured fluorescence slope for these entries.
- Target Entity: Voltage-gated potassium channel subunit beta-2 (Rattus norvegicus)
- Method: inhibitors of rat Kvbeta2 reductase activity – biochemical, NADPH fluorescence, primary screen (AID 622);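 also: slope of raw intensity against log time taken from 70 to 1610 s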
- Condition: recombinant KvBeta, 4-cyanobenzaldehyde reduction, at 10 µM, stronger effect = higher value
Activity calls are given as the source filed them.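 The calls were made as follows: active = fluorescence slope higher than the sample average by over 3 SD (cut at about -0.22 in these data, passing the limit was not always enough); inactive = the rest.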

Reported fluorescence slope of CCC(COC(=O)c1cc(OC)c(OC)c(OC)c1)(c1ccccc1)N(C)C (stereo not drawn) : -0.498 (inactive)

Reported fluorescence slope of "Cc1ccccc1-n1c(O)c(C=NCCN2CCOCC2)c(=O)[nH]c1=O" : -0.432 (inactive)

Reported fluorescence slope of "CCCCn1c(O)c(C(C)=Nc2cccc(C(=O)O)c2)c(=O)[nH]c1=O" : -0.604 (inactive)

Reported fluorescence slope of CC1(c2ccccc2)NCCN2C(=O)CSC21 (stereo not drawn) : -0.477 (inactive)

Reported fluorescence slope of "COc1ccccc1CN1CCN(C(=O)Cc2ccccc2)CC1" : -0.326 (inactive)

Reported fluorescence slope of CC(=O)C1C(=O)NC23CCCCC2C1c1ccccc1O3 (stereo not drawn) : -0.357 (inactive)

Reported fluorescence slope of "COc1ccc(C(=O)C(C)(C)NO)cc1" : -0.62 (inactive)

Reported fluorescence slope of "O=c1[nH]c(=O)n(Cc2ccco2)c(O)c1C=NCCN1CCOCC1" : -0.384 (inactive)

Reported fluorescence slope of COc1ccc2c(c1OC)C(=O)OC2c1c(O)n(C2CCCCC2)c(=O)[nH]c1=O (stereo not drawn) : -0.379 (inactive)

Reported fluorescence slope of c1ccc(C2CC3CC(c4ccco4)N2O3)cc1 (stereo not drawn) : -0.514 (inactive)

Reported fluorescence slope of "CN1CCC(N(C)c2ncnc3ccc(Br)cc23)CC1" : -0.606 (inactive)

Reported fluorescence slope of "O=c1c(C=NCCN2CCNCC2)c(O)n(C2CCCCC2)c(=O)n1C1CCCCC1" : -0.516 (inactive)

Reported fluorescence slope of CCCC12CN3CN(C1)CC(CCC)(C3)C2O (stereo not drawn) : -0.474 (inactive)

Reported fluorescence slope of "CCCCn1c(O)c(C(CC)=Nc2cccc(C(=O)O)c2)c(=O)[nH]c1=O" : -0.382 (inactive)

Reported fluorescence slope of C[N+]1(C)[C@@H]2CC(OC(=O)[C@H](CO)c3ccccc3)C[C@H]1[C@@H]1O[C@@H]12 (stereo partly drawn) : -0.433 (inactive)

Reported fluorescence slope of "CN1CC[C@@]23CCCC[C@@H]2[C@@H]1Cc1ccc(O)cc13" : -0.439 (inactive)

Reported fluorescence slope of "CC(C)[C@@]1(NC(=O)[C@@H]2C[C@@H]3c4cccc5[nH]cc(c45)C[C@H]3N(C)C2)O[C@@]2(O)[C@@H]3CCCN3C(=O)[C@H](Cc3ccccc3)N2C1=O" : -0.47 (inactive)

Reported fluorescence slope of "O=c1[nH]c(=O)n(CCc2ccccc2)c(O)c1C=NCCN1CCNCC1" : -0.348 (inactive)

Reported fluorescence slope of "CC1=C(C(=O)OC(C)C)[C@]2(C(=O)N(CC(N)=O)c3ccccc32)C(C#N)=C(N)O1" : -0.435 (inactive)

Reported fluorescence slope of "COC(=O)c1c(C)n(Cc2ccc3c(c2)OCO3)c2ccc(O)cc12" : -0.528 (inactive)

Reported fluorescence slope of "O=c1[nH]c(=O)n(Cc2ccccc2)c(O)c1C=NCCN1CCOCC1" : -0.393 (inactive)

Reported fluorescence slope of "Nc1c(C(=O)NCc2ccco2)c2nc3ccccc3nc2n1Cc1ccc(F)cc1" : -0.236 (inactive)

Reported fluorescence slope of COc1ccc(C2SCC(=O)Nc3c2c(=O)[nH]n3C2CCCCC2)cc1 (stereo not drawn) : -0.479 (inactive)

Reported fluorescence slope of "C[C@@]1(CO)[C@H](O)CC[C@@]2(C)[C@H]1CC[C@H]1C[C@@H]3C[C@@]12CC[C@]3(O)CO" : -0.469 (inactive)

Reported fluorescence slope of "C=CCC1(CN2CCCCCC2=O)C(=O)NC(=O)NC1=O" : -0.517 (inactive)

Reported fluorescence slope of COc1ccc(OC)c(C2=NOC(C(=O)N3CCC4(CC3)OCCO4)C2)c1 (stereo not drawn) : -0.234 (inactive)

Reported fluorescence slope of "OCCOCC#CCN1CCOCC1" : -0.497 (inactive)

Reported fluorescence slope of COC1=CC(=O)OC(/C=C/c2ccccc2)C1 (stereo not drawn) : -0.448 (inactive)

Reported fluorescence slope of "CCOc1ccc(Cc2c(O)[nH]c(=O)[nH]c2=O)cc1" : -0.34 (inactive)

Reported fluorescence slope of "CCOC(=O)[C@]1(C#N)[C@@H]2C=CC(C(C)=O)=CN2[C@@H](C(N)=O)[C@@H]1c1ccsc1" : -0.358 (inactive)

Reported fluorescence slope of "C[N+]1(C)CCc2cc3c(cc2[C@H]1[C@@H]1OC(=O)c2c1ccc1c2OCO1)OCO3" : -0.486 (inactive)

Reported fluorescence slope of "O=P(OCC(F)(F)C(F)F)(N1CCCCC1)N1CCCCC1" : -0.5 (inactive)

Reported fluorescence slope of CCCCNC(=O)Nc1ccc(C(O)(C(=O)OC)C(F)(F)F)cc1 (stereo not drawn) : -0.482 (inactive)

Reported fluorescence slope of CC(CCc1ccccc1)NC(C)C(O)c1ccc(O)cc1 (stereo not drawn) : -0.468 (inactive)

Reported fluorescence slope of "CC(C)(C)OC(=O)c1c(N)n(Cc2ccco2)c2nc3ccccc3nc12" : -0.293 (inactive)

Reported fluorescence slope of C=CCOC(=O)C1=C(C)OC(N)=C(C#N)C12C(=O)N(CN1CCOCC1)c1ccccc12 (stereo not drawn) : -0.515 (inactive)

Reported fluorescence slope of "Cn1c(=O)cc(SCC(=O)N2CCC3(CC2)OCCO3)c2ccc(Cl)cc21" : -0.556 (inactive)

Reported fluorescence slope of "CCOc1ccc(-n2c(O)c(C=NCCN3CCNCC3)c(=O)[nH]c2=O)cc1" : -0.351 (inactive)

Reported fluorescence slope of "Cc1c(N=Cc2c(O)n(CCc3ccc(F)cc3)c(=O)[nH]c2=O)c(=O)n(-c2ccccc2)n1C" : -0.389 (inactive)

Reported fluorescence slope of "COc1ccc(Cn2c(O)c(C=NCCCn3ccnc3)c(=O)[nH]c2=O)cc1" : -0.443 (inactive)

Reported fluorescence slope of "COc1ccccc1N1CCN(Cc2c(F)cccc2F)CC1" : -0.431 (inactive)

Reported fluorescence slope of "COc1ccc2c(c1)c(C(=O)O)c(C)n2CC(C)C" : -0.462 (inactive)

Reported fluorescence slope of c1ccc2c(c1)OCC(C1=NCCN1)O2 (stereo not drawn) : 0.111 (active)

----------
I'd be grateful if you could share measured inhibition for these entries.
- Method: loss of swimming-algae plug formation – whole organism, Chlamydomonas reinhardtii, WT vs cilia-less mutant, absorbance, 96-well, primary screen (AID 463189);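 also: 0% = wild type cc124 cells in DMSO and 100% = ciliumless bld1 mutant cells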
- Condition: Chlamydomonas reinhardtii gravitaxis, OD600 absorbance, 2 days; at 10 µM; stronger effect = higher value
The source made the active and inactive calls.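 Rule for the calls: active = inhibition at or above 50% relative to wild type and mutant plate controls; inactive = inhibition below 50%.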

Reported inhibition of "NC(N)=Nc1ccc2[nH]c3c(c2c1)C[C@@]1(O)[C@H]2Cc4ccc(O)c5c4[C@@]1(CCN2CC1CC1)[C@H]3O5" : -0.588% (inactive)

Reported inhibition of "CC1=C[C@@H]2c3cccc4[nH]cc(c34)C[C@H]2N(C)C1" : 69.4% (active)

Reported inhibition of "O=C(O)c1cc[c]([Hg][Cl])cc1" : 9.04% (inactive)

Reported inhibition of C[N+]1(C)CCOC(O)(c2ccc(-c3ccc(C4(O)C[N+](C)(C)CCO4)cc3)cc2)C1 (stereo unspecified) : 1.34% (inactive)

Reported inhibition of "C=CCn1c(O)c(C=Nc2ccc(N(CC)CC)cc2)c(=O)[nH]c1=O" : 25.3% (inactive)

Reported inhibition of "C[C@]12N[C@H](Cc3ccccc31)c1ccccc12" : -0.308% (inactive)

Reported inhibition of CC1OC1P(=O)(O)O (stereo unspecified) : 0.291% (inactive)

Reported inhibition of "CCOc1ccccc1-n1c(O)c(C=Nc2ccc(N(CC)CC)cc2)c(=O)[nH]c1=O" : 7.21% (inactive)

Reported inhibition of CC(N)C(=O)OC(C)(C)Cc1ccc(Cl)cc1 (stereo unspecified) : -6.83% (inactive)

Reported inhibition of "O=C(CN1CCN(CCO)CC1)Nc1ccc(Cl)cc1C(=O)c1ccccc1" : 12% (inactive)

Reported inhibition of "CN1CCC(OC(=O)C2c3ccccc3Oc3ccccc32)CC1" : 11.4% (inactive)

----------
- Method: TLR3 IRF3 reporter activation blockers – cell-based, poly I:C stimulus, luciferase, 10K MLSCN set, primary screen (AID 602277)
- Condition: HEK293-TLR3 RL24 IRF3 luciferase reporter, at 10 µM, stronger effect = higher value
Decision: inhibition compared against 10%; not below it gives fulfilled, below it gives not fulfilled.

Please tell me: is the compound "O=C(c1ccc(CS(=O)(=O)c2ccccc2)o1)N1CCC2(CC1)OCCO2" at or over 10% in terms of inhibition? not fulfilled

Please tell me: is the compound CC(C)OCCCNC(=O)c1c(N)n(CC2CCCO2)c2nc3ccccc3nc12 (configuration not stated) at or over 10% in terms of inhibition? fulfilled

Please tell me: is the compound "CCCCCCOc1ccc(CN2CCN(C)CC2)cc1" at or over 10% in terms of inhibition? not fulfilled

Please tell me: is the compound "O=C(CCCOc1ccc(Cl)cc1Cl)N1CCC2(CC1)OCCO2" at or over 10% in terms of inhibition? not fulfilled

Please tell me: is the compound Cc1nn(-c2ccccc2)c2c1CC1(C(=O)N(C)C(=O)N(C)C1=O)C1CCCCN21 (configuration not stated) at or over 10% in terms of inhibition? fulfilled

Please tell me: is the compound "CN(C)[C@@H]1C(=O)C(C(N)=O)=C(O)[C@@]2(O)C(=O)C3=C(O)c4c(O)cccc4[C@@](C)(O)[C@H]3[C@H](O)[C@@H]12" at or over 10% in terms of inhibition? not fulfilled

Please tell me: is the compound CCOc1ccc(C2SCC(=O)Nc3c2c(=O)[nH]n3C2CCCCCC2)cc1 (configuration not stated) at or over 10% in terms of inhibition? fulfilled

Please tell me: is the compound CC1CCN2c3nc4ccccn4c(=O)c3CC3(C(=O)N(C)C(=O)N(C)C3=O)C2C1 (configuration not stated) at or over 10% in terms of inhibition? fulfilled

Please tell me: is the compound O=C1C2CCCN2C(c2ccc(Cl)c(Cl)c2)N1c1ccccn1 (configuration not stated) at or over 10% in terms of inhibition? fulfilled

Please tell me: is the compound "Cc1ccc(CC2C(=O)N(C)C(=O)N(C)C2=O)s1" at or over 10% in terms of inhibition? fulfilled

Please tell me: is the compound "COc1ccc(CN2CCN(C(=O)Cc3ccccc3)CC2)c(OC)c1" at or over 10% in terms of inhibition? fulfilled

Please tell me: is the compound "C[C@H]1CCCC(=O)CCCCCc2cc(O)cc(O)c2C(=O)O1" at or over 10% in terms of inhibition? fulfilled

Please tell me: is the compound CC(CCc1ccccc1)NC(C)C(O)c1ccc(O)cc1 (configuration not stated) at or over 10% in terms of inhibition? fulfilled

Please tell me: is the compound "CN1C[C@H](CNC(=O)OCc2ccccc2)C[C@@H]2c3cccc4c3c(cn4C)C[C@H]21" at or over 10% in terms of inhibition? fulfilled

Please tell me: is the compound "C=CCn1c(O)c(C(C)=NCCCO)c(=O)[nH]c1=O" at or over 10% in terms of inhibition? fulfilled

Please tell me: is the compound "Cc1ccc(Cn2c(C)c3cnn(CC(=O)N4CCC5(CC4)OCCO5)c(=O)c3c2C)cc1" at or over 10% in terms of inhibition? not fulfilled

Please tell me: is the compound CSc1ccc(CNC2CN3CCC2CC3)cc1 (configuration not stated) at or over 10% in terms of inhibition? fulfilled

Please tell me: is the compound "CCCNS(=O)(=O)c1ccc(OCC(=O)N2CCN(Cc3ccccc3)CC2)cc1" at or over 10% in terms of inhibition? not fulfilled

Please tell me: is the compound "Cc1ccc(S(=O)(=O)Cc2ccc(C(=O)N3CCC4(CC3)OCCO4)o2)cc1" at or over 10% in terms of inhibition? not fulfilled

Please tell me: is the compound OC(CNC1CCCCC1)c1ccccc1 (configuration not stated) at or over 10% in terms of inhibition? fulfilled

Please tell me: is the compound "O=C(O)C1(c2ccc(Cl)cc2)CCC1" at or over 10% in terms of inhibition? fulfilled
